# Tested on: ACHN renal
# test_name: NCI-60 one-dose screen, 48 h (100 = growth as untreated, 0 = no growth, -100 = all killed)
# experimental_context: 10 µM unless noted
The panel holds about 83,000 compounds, 20% with a hit somewhere; the sample as a whole holds those more often.
result_type: growth (%)
Give the value in % but do not write % after it.

{"molecule": "CSc1ncnc2c1ncn2C1CCCO1 (stereo not drawn)", "growth (%)": 99}
{"molecule": "ClC1=C2NC=NC2n2c(nnc2-c2ccc(Cl)cc2)N1 (stereo not drawn)", "growth (%)": 109}

*Q* Under ACHN renal: report growth of `Nc1c(C(=O)Nc2cccc3c2OCCO3)sc2nc3c(cc12)C(=O)CCC3` .
*A* 55.4

###

Form field: growth (one value per entry).
# Tested on: NCI/ADR-RES ovarian
# test_name: NCI-60 one-dose screen, 48 h (100 = growth as untreated, 0 = no growth, -100 = all killed)
# experimental_context: 10 µM unless noted
The panel holds about 83,000 compounds, 20% with a hit somewhere; the sample as a whole holds those more often.
Give the value in % but do not write % after it.

{"entry_smiles": "O=C(CO[N+](=O)[O-])Nc1ccc(C(=O)/C=C/c2ccc(Cl)cc2)cc1", "growth, %": 29.9}

*Q* Tell me measured growth for `CC/C=C\C[C@H](F)C/C=C1/C(=O)C=C[C@@H]1C/C=C\CCCC(=O)O` please.
*A* 9.24

*Q* Tell me measured growth for `CN(C)C(=O)c1cc2cnc(Nc3ccc(-c4csc5c(=O)cc(N6CCNCC6)oc45)cc3)nc2n1C1CCCC1` please.
*A* 77.5

*Q* Tell me measured growth for `O=C1C[C@H](Sc2nc(-c3ccc(F)cc3)cc(C(F)(F)F)n2)[C@H]2CO[C@@H]1O2` please.
*A* 106

*Q* Tell me measured growth for `COc1cc2c(c(OC)c1OC)-c1ccc(N=NC(N)=S)c(=O)cc1[C@@H](NC(C)=O)CC2` please.
*A* 82.1

*Q* Tell me measured growth for `Nc1nc2ccc(-c3nc4ccc5[nH]ncc5c4c4c3CCC4)cc2s1` please.
*A* 27.8

*Q* Tell me measured growth for `NS(=O)(=O)N(c1cc(C(F)(F)F)cc(C(F)(F)F)c1)C1CCN(Cc2ccc(F)cc2)CC1` please.
*A* 51.3

*Q* Tell me measured growth for `O=C(O)c1c([N+](=O)[O-])cnc2ccccc12` please.
*A* 96.7

*Q* Tell me measured growth for `COc1cc(NC(N)=NCC(C)(C)COc2ccc(C(F)(F)F)cc2)cnc1C#N` please.
*A* 70.2

###

# System: TK-10 renal
# test_name: NCI-60 one-dose screen, 48 h (100 = growth as untreated, 0 = no growth, -100 = all killed)
# experimental_context: 10 µM unless noted
This is part of a sample that, as a whole, favours compounds with a hit. Of some 83,000 tested, about 20% had one in any assay.
result_type: growth (%)
Give the value in % but do not write % after it.

{"molecule": "COc1ncc(-c2ccc3ncnc(Nc4cccc(Cl)c4)c3c2)cc1NS(C)(=O)=O", "unit_of_measurement": "%", "growth": -11.1}
{"molecule": "COc1cc(OC)c(/C=C/c2cc[n+](C)c3ccccc23)c(OC)c1", "unit_of_measurement": "%", "growth": 53.4}
{"molecule": "O=C(Cc1ccccc1)c1ccc(Cl)cc1", "unit_of_measurement": "%", "growth": 99.5}
{"molecule": "CC/C=C\\C[C@H](O)C/C=C1/C(=O)C=C[C@@H]1C/C=C\\CCCC(=O)NC(C)C", "unit_of_measurement": "%", "growth": -0.347}
{"molecule": "O=C(O)c1ccc2c(c1Sc1ccccc1)C(=O)c1ccccc1C2=O", "unit_of_measurement": "%", "growth": 86.5}
{"molecule": "CCCCNP1(NCCCC)=NP(NCCCC)(NCCCC)=NP(NCCCC)(NCCCC)=NP(NCCCC)(NCCCC)=N1", "unit_of_measurement": "%", "growth": 13.6}

*Q* Tell me measured growth for `CCNS(=O)(=O)c1ncnc2nc[nH]c12` please.
*A* 122

*Q* Tell me measured growth for `CCN(CC)CCCCNc1ccc(NCCCCN(CC)CC)c2c1C(=O)c1ccccc1C2=O` please.
*A* 57.8

*Q* Tell me measured growth for `COc1ccccc1/C=C(/C(=O)c1ccccc1)c1ccccc1` please.
*A* 119

*Q* Tell me measured growth for `COc1ccc2nc3cc(Cl)ccc3c(N3CCN(c4nccc(Nc5ccc(Cl)cc5)n4)CC3)c2c1` please.
*A* 55.8

*Q* Tell me measured growth for `Cn1cc(-c2csc(-c3cn(C)c4ncccc34)n2)c2ccccc21` please.
*A* 50.3

###

# Test system: OVCAR-4 ovarian
# test_name: NCI-60 one-dose screen, 48 h (100 = growth as untreated, 0 = no growth, -100 = all killed)
# experimental_context: 10 µM unless noted
This is part of a sample that, as a whole, favours compounds with a hit. Of some 83,000 tested, about 20% had one in any assay.
Where growth equals or exceeds 50%, the correct label is label 1; where it does not, the label is label 0.

A selection of reference data follows.
{"molecule": "CCCCCCCCCCCCCCCCCCNC(=O)[C@H]1CSC(c2ccc(OC)c(F)c2)N1 (stereo partly specified)", "experimental_system": "OVCAR-4 ovarian", "class": "label 1"}
{"molecule": "COc1ccc(OCC(=O)Nc2ccc(-c3nc4ccccc4s3)cc2C)cc1", "experimental_system": "OVCAR-4 ovarian", "class": "label 1"}

*Q* Is the recorded value of growth equal to or greater than 50% for this molecule? `O=C1O[C@H]([C@H](O)CO)C(O)=C1O`
*A* label 1

*Q* Is the recorded value of growth equal to or greater than 50% for this molecule? Cc1nn(-c2nc3ccccc3[nH]2)c2c1C(c1ccc3c(c1)OCO3)CC(=O)N2 (stereo unspecified)
*A* label 1

*Q* Is the recorded value of growth equal to or greater than 50% for this molecule? `CS(=O)(=O)c1c(Nc2ccccc2)n[nH]c1N`
*A* label 1

*Q* Is the recorded value of growth equal to or greater than 50% for this molecule? `CC(=O)CC(C)(C)c1ccc(Cl)cc1`
*A* label 1

*Q* Is the recorded value of growth equal to or greater than 50% for this molecule? `Cn1cc(-c2nc(-c3c[nH]c4ccccc34)cs2)c2cccnc21`
*A* label 0

###

# Test system: HOP-62 NSCLC
# test_name: NCI-60 one-dose screen, 48 h (100 = growth as untreated, 0 = no growth, -100 = all killed)
# experimental_context: 10 µM unless noted
About 83,000 compounds went through this panel and 20% of them were active in at least one assay; those are over-represented in the sample as a whole.
Where growth equals or exceeds 40%, the correct label is MET; where it does not, the label is NOT MET.

A selection of reference data follows.
{"compound": "C=C1CC[C@@H]2[C@](C)(COC(C)=O)[C@H](OC(C)=O)CC[C@@]2(C)[C@@H]1CC(NCc1ccc(F)cc1)C1=CCOC1=O (stereo partly specified)", "class": "MET"}
{"compound": "O=C(COc1cccc(/C=C2/Oc3ccccc3C2=O)c1)Nc1nccs1", "class": "MET"}
{"compound": "C=C1CCC2C3(C)COC(c4ccc(SC)cc4)OC3CCC2(C)C1C/C=C1/C(=O)OCC1O (stereo unspecified)", "class": "MET"}
{"compound": "COc1ccc(/C=C/C(=O)c2c(O)c(C)c(O)c3c2OC2=CC(O)=C(C(C)=O)C(=O)[C@]23C)cc1", "class": "NOT MET"}
{"compound": "C=C1CCC2C3(C)COC(c4cccc(Cl)c4)OC3CCC2(C)C1/C=C/C1=CCOC1=O (stereo unspecified)", "class": "MET"}
{"compound": "COc1cc(OC)c(/C=C/C(=O)c2c(OC)cc(OC)cc2OC)c(OC)c1", "class": "NOT MET"}

*Q* Is the recorded value of growth equal to or greater than 40% for this compound? `COC1=CC(=O)C(OC)=C(OC)C1=O`
*A* MET

*Q* Is the recorded value of growth equal to or greater than 40% for this compound? `CC(=O)C1=C(O)C=C2Oc3c(C(=O)/C=C/c4ccccc4)c(O)c(C)c(O)c3[C@]2(C)C1=O`
*A* NOT MET

*Q* Is the recorded value of growth equal to or greater than 40% for this compound? `Cl/C(=N\Nc1ccccc1)c1ccccc1`
*A* MET

*Q* Is the recorded value of growth equal to or greater than 40% for this compound? CCCCCCCCCCCCCCCCCCNC(=O)[C@H]1CSC(c2ccc(OC)c(F)c2)N1 (stereo partly specified)
*A* NOT MET

*Q* Is the recorded value of growth equal to or greater than 40% for this compound? CCCCCCCCCCCCCC(=O)C(C)N (stereo unspecified)
*A* NOT MET

*Q* Is the recorded value of growth equal to or greater than 40% for this compound? `O=S(=O)(Nc1ccc(Cl)cc1Cl)c1ccc(-c2cnc(C3CC3)o2)cc1`
*A* NOT MET

*Q* Is the recorded value of growth equal to or greater than 40% for this compound? `Cc1ccn2c(-c3csc(Nc4cccc(O)c4)n3)c(C)nc2c1`
*A* NOT MET

*Q* Is the recorded value of growth equal to or greater than 40% for this compound? `Cn1cc(-c2csc(-c3cn(C)c4ncccc34)n2)c2ccccc21`
*A* NOT MET

*Q* Is the recorded value of growth equal to or greater than 40% for this compound? `Cc1cc(-c2nc3ccccc3s2)ccc1NC(=O)COc1ccc(Cl)cc1`
*A* MET

*Q* Is the recorded value of growth equal to or greater than 40% for this compound? `Nc1nc2ccc(-c3nc4ccc5[nH]ncc5c4c4c3CCC4)cc2s1`
*A* NOT MET

*Q* Is the recorded value of growth equal to or greater than 40% for this compound? `Cc1[nH]n(-c2ccccc2)c2nc3nncc3c(-c3ccc(Cl)cc3)c12`
*A* MET

*Q* Is the recorded value of growth equal to or greater than 40% for this compound? `Cn1c2ccccc2c2c3c(c4c5ccccc5[nH]c4c21)C(=O)N(N)C3=O`
*A* MET

*Q* Is the recorded value of growth equal to or greater than 40% for this compound? `COc1cc2c(cc1O)CCc1cc(O)cc(OC)c1-2`
*A* MET

*Q* Is the recorded value of growth equal to or greater than 40% for this compound? `CCN(CC)CCCNc1cccc2c(SCc3ccccc3)ccnc12`
*A* MET

*Q* Is the recorded value of growth equal to or greater than 40% for this compound? O=C(NC(Cc1ccccc1)C(=O)CCl)OCc1ccccc1 (stereo unspecified)
*A* MET
